experiment: Distribution profile of prototype drug and rapamycin in plasma, liver and tumor of nude mice (LC-MS); assay type: in vivo; conditions: nude, mouse, plasma, 0.5 h after administration, mean of 3 animals; read-out: Y31 (prototype) concentration, Blood Plasma, Mean Value
quantity_kind: concentration at 0.5 h (ng/mL)
Give the quantity in ng/mL, number only.

Name the reported concentration at 0.5 h value associated with the compound CO[C@H]1C[C@@H]2CC[C@@H](C)[C@@](O)(O2)C(=O)C(=O)N2CCCC[C@H]2C(=O)O[C@H]([C@H](C)C[C@@H]2CC[C@@H](OC(=O)OCC(O)CO)[C@H](OC)C2)CC(=O)[C@H](C)/C=C(\C)[C@@H](O)[C@@H](OC)C(=O)[C@H](C)C[C@H](C)/C=C/C=C/C=C/1C (stereo partly shown) 2.4

----------
test: in vivo; assay type: in vivo; details: nude, mouse, in vivo, CCI-779 (prototype) concentration, Tumor, Mean Value
quantity_kind: concentration at 48 h (ng/g)
Give the quantity in ng/g, number only.

Name the reported concentration at 48 h value associated with the compound CO[C@H]1C[C@@H]2CC[C@@H](C)[C@@](O)(O2)C(=O)C(=O)N2CCCC[C@H]2C(=O)O[C@H]([C@H](C)C[C@@H]2CC[C@@H](OC(=O)C(C)(CO)CO)[C@H](OC)C2)CC(=O)[C@H](C)/C=C(\C)[C@@H](O)[C@@H](OC)C(=O)[C@H](C)C[C@H](C)/C=C/C=C/C=C/1C 6.52

----------
test: in vivo; format: in vivo; details: nude, mouse, in vivo, CCI-779 (prototype) concentration, Liver, Mean Value
quantity_kind: concentration at 12 h

Name the reported concentration at 12 h value associated with the molecule CO[C@H]1C[C@@H]2CC[C@@H](C)[C@@](O)(O2)C(=O)C(=O)N2CCCC[C@H]2C(=O)O[C@H]([C@H](C)C[C@@H]2CC[C@@H](OC(=O)C(C)(CO)CO)[C@H](OC)C2)CC(=O)[C@H](C)/C=C(\C)[C@@H](O)[C@@H](OC)C(=O)[C@H](C)C[C@H](C)/C=C/C=C/C=C/1C [CCI-779] 28.6 ng/g

----------
system: human rhabdomyosarcoma RH-30 xenograft; assay: RH-30 xenograft on nude mice; details: Table 4, 5 mg/kg po, 1-5/2 w;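 also: male BALB/cA nude mice with subcutaneous RH-30 tumors, oral dosing versus solvent-fed controls, caliper tumor volume, RTV relative to grouping day, T/C as treated RTV over control RTV ×100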
quantity_kind: Body Weight (g) start
Give the quantity in g, number only.

Name the reported Body Weight (g) start value associated with the molecule CO[C@H]1CC2CC[C@@H](C)[C@@](O)(O2)C(=O)C(=O)N2CCCCC2C(=O)O[C@H]([C@H](C)C[C@@H]2CC[C@@H](O)[C@H](OC)C2)CC(=O)[C@H](C)/C=C(\C)[C@@H](OC(=O)OCC(O)CO)[C@@H](OC)C(=O)[C@H](C)C[C@H](C)/C=C/C=C/C=C/1C (stereo partly shown) 20.2

Further, for CO[C@H]1CC2CC[C@@H](C)[C@@](O)(O2)C(=O)C(=O)N2CCCCC2C(=O)O[C@H]([C@H](C)C[C@@H]2CC[C@@H](OC(=O)OCC(O)CO)[C@H](OC)C2)CC(=O)[C@H](C)/C=C(\C)[C@@H](OC(=O)OCC(O)CO)[C@@H](OC)C(=O)[C@H](C)C[C@H](C)/C=C/C=C/C=C/1C (stereo partly shown) ? 20.0

Further, for CO[C@H]1C[C@@H]2CC[C@@H](C)[C@@](O)(O2)C(=O)C(=O)N2CCCC[C@H]2C(=O)O[C@H]([C@H](C)C[C@@H]2CC[C@@H](O)[C@H](OC)C2)CC(=O)[C@H](C)/C=C(\C)[C@@H](O)[C@@H](OC)C(=O)[C@H](C)C[C@H](C)/C=C/C=C/C=C/1C ? 19.8

Further, for CO[C@H]1C[C@@H]2CC[C@@H](C)[C@@](O)(O2)C(=O)C(=O)N2CCCC[C@H]2C(=O)O[C@H]([C@H](C)C[C@@H]2CC[C@@H](OC(=O)OCC(O)CO)[C@H](OC)C2)CC(=O)[C@H](C)/C=C(\C)[C@@H](O)[C@@H](OC)C(=O)[C@H](C)C[C@H](C)/C=C/C=C/C=C/1C (stereo partly shown) ? 20.8
